molecular target: CYP2D6 (Homo sapiens, UniProt P10635); test: Reversible CYP inhibition in human liver microsomes; conditions: human, microsomes, pH 7.4, Percent of Control Activity, CYP 2D6, 2.09 µM, 30-Minute Preincubation
Sequence (P10635 whole entry): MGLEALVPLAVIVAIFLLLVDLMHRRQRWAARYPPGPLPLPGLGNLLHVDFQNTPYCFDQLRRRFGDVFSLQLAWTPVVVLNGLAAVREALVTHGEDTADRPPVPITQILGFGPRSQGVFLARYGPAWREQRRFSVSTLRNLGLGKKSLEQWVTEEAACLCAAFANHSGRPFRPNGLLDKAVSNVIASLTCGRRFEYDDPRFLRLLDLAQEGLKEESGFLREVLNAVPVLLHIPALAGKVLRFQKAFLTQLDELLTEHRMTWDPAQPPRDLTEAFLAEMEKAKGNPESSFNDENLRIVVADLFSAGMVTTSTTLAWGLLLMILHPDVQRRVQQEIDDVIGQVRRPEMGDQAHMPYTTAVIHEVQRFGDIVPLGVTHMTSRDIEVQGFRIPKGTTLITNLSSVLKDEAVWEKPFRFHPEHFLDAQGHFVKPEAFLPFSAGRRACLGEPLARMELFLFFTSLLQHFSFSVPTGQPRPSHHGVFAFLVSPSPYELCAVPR

- structure: "COc1cccc2[nH]c(C(=O)N[C@@H](CC(C)C)C(=O)N[C@@H](C[C@@H]3CCNC3=O)C(=O)CO)cc12"
  activity at 2.09 µM / %: 104

---

test: Metabolic stability and enzyme kinetics in liver S9 (conversion to PF-00835231); settings: dog, liver S9, pH 7.5, CLint,app
quantityName: microsomal CLint (µL/min/mg)

- structure: "COc1cccc2[nH]c(C(=O)N[C@@H](CC(C)C)C(=O)N[C@@H](C[C@@H]3CCNC3=O)C(=O)COP(=O)(O)O)cc12"
  numericValue: 75.2
